# system_tested: T1, Terbium (Tb) labeled-SNAP tagged ROBO2 expressed on HEK293 cells (Homo sapiens (Human), UniProt Q9HCK4 22-1378, terbium label on the SNAP tag)
# T1 construct: also called Tb-labeled ROBO2 cells; ROBO2 expressing cells; not shown: SNAP tag
# T1 sequence: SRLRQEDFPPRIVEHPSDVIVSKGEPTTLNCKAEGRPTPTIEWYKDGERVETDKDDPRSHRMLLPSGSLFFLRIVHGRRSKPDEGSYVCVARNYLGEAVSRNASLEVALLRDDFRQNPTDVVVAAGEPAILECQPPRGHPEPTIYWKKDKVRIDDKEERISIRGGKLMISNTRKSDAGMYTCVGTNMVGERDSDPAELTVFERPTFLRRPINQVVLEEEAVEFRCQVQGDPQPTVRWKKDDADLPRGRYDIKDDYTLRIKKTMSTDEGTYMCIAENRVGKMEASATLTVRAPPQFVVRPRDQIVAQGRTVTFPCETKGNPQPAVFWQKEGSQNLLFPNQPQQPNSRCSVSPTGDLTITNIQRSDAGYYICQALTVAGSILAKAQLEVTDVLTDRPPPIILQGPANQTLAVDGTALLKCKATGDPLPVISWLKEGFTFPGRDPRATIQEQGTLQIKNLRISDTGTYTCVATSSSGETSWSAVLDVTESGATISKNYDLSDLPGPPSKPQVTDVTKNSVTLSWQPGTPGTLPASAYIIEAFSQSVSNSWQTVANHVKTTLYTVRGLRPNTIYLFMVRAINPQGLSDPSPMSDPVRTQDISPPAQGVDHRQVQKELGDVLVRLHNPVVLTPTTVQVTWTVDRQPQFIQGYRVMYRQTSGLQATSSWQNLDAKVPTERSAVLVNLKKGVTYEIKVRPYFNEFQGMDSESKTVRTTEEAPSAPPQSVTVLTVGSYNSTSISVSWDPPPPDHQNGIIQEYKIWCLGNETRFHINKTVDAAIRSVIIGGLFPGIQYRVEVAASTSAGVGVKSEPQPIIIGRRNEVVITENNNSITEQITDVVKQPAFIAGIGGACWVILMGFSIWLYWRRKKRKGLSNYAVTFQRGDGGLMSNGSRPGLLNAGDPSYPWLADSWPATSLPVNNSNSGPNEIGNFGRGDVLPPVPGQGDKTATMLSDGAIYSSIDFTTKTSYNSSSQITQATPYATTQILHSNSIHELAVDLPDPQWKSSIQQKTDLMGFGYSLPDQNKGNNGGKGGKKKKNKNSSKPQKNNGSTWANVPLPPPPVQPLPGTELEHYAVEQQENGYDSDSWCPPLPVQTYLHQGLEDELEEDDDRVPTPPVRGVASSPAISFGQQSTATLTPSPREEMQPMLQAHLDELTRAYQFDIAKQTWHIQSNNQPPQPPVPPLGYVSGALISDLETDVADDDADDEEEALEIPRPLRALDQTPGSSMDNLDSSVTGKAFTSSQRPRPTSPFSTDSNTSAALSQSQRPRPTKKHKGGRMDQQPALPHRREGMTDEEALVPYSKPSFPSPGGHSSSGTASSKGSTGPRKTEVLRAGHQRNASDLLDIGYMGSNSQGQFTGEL
# assay_remarks: HTRF, 5 nM d2-SLIT2-N on Tb-SNAP-ROBO2 HEK293 cells, 1 nM antibody
# Procedure: In this assay, terbium (Tb) labeled-SNAP tagged ROBO2 expressing HEK293 cells were incubated with 5 nM d2-labeled SLIT-2N in the presence of 1 nM anti-ROBO2 antibodies for 1 hour. After incubation, fluorescence at 665 nm and 620 nm was measured on an Envision multilabel plate reader. […] Antibodies derived from chain (Abcs series) or CDR shuffling (CTIR-2 series) were evaluated in 11-point, 5-fold dilution series with a top concentration of 1500 nM (Table 2 HTRF IC₅₀). […]
Assignment: determine reported HTRF Ratio for the given binders.
Give bare numbers.

INSERT INTO results (binder, quantitative_readout) VALUES
  ('Abcs55 (antibody, human IgG1, kappa, V domains shown, chain-shuffled IgG) VH: EVQLVQSGAEVKKPGASVKVSCKASGYTFTGYYMHWVRQAPGQGLEWMGWINPKDGDTEFPQKFQGRVTMTRDTSITTAYMDLSRLRSDDTAVYYCARESGDDAFDIWGQGTMVTVSS VL: DIVMTQSPSSLSASVGDRVTITCRASQSISSYLNWYQQKPGKAPKLLIYAASSLQYGVPSRFSGSGSGTDFTLTISSLQPEDFATYYCQQSYSTSFGGGTKVEIKR', 3050),
  ('CTIR2-7 (antibody, human IgG1, kappa, V domains shown, CDR-shuffled IgG) VH: EVQLVQSGAEVKKPGASVKVSCKASGYTFTGYYMHWVRQAPGQGLEWMGWINPKSGATNFPQKFQGRVTMTRDTSITTAYMDLSRLRSDDTAVYYCARESGDDAFDIWGQGTMVTVSS VL: DIVMTQSPSSLSASVGDRVTITCRASQKISSYLNWYQQKPGKAPKLLIYAASSLQYGVPSRFSGSGSGTDFTLTISSLQPEDFATYYCQQSLELGFGGGTKVEIKR', 3670),
  ('CTIR2-14 (antibody, human IgG1, kappa, V domains shown, CDR-shuffled IgG) VH: EVQLVQSGAEVKKPGASVKVSCKASGYTFRGYAMHWVRQAPGQGLEWMGWIDPRTGLTKFPQKFQGRVTMTRDTSITTAYMDLSRLRSDDTAVYYCARESGDDAFDIWGQGTMVTVSS VL: DIVMTQSPSSLSASVGDRVTITCRASQKISSYLNWYQQKPGKAPKLLIYAASSLQYGVPSRFSGSGSGTDFTLTISSLQPEDFATYYCQQSLELGFGGGTKVEIKR', 3710),
  ('CTIR2-16 (antibody, human IgG1, kappa, V domains shown, CDR-shuffled IgG) VH: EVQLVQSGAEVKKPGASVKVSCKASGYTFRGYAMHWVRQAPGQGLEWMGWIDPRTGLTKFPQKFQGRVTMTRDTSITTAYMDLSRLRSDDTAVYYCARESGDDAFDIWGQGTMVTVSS VL: DIVMTQSPSSLSASVGDRVTITCRASQKISSYLNWYQQKPGKAPKLLIYAASSLQYGVPSRFSGSGSGTDFTLTISSLQPEDFATYYCQQSVGLFFGGGTKVEIKR', 3730),
  ('CTIR2-4 (antibody, human IgG1, kappa, V domains shown, CDR-shuffled IgG) VH: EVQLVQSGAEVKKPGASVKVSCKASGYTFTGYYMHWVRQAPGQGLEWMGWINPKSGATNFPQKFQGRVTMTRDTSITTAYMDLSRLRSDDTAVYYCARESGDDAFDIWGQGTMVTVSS VL: DIVMTQSPSSLSASVGDRVTITCRASQKISSYLNWYQQKPGKAPKLLIYAASSLQYGVPSRFSGSGSGTDFTLTISSLQPEDFATYYCQQSYSTSFGGGTKVEIKR', 6170);

Here are 5 binders. What values of HTRF Ratio were reported for them?
1. CTIR2-5 (antibody, human IgG1, kappa, V domains shown, CDR-shuffled IgG) VH: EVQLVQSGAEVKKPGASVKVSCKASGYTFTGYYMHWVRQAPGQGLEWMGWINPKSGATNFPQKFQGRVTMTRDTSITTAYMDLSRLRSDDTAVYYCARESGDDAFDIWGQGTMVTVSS VL: DIVMTQSPSSLSASVGDRVTITCRASQKISSYLNWYQQKPGKAPKLLIYAASSLQSGVPSRFSGSGSGTDFTLTISSLQPEDFATYYCQQSLELGFGGGTKVEIKR
2. Ab22 (antibody, human IgG1, kappa, V domains shown, full-length human IgG) VH: EVQLVQSGAEVKKPGASVKVSCKASGYTFTGYYMHWVRQAPGQGLEWMGWINPRSGATNFPQKFQGRVTMTRDTSITTAYMDLSRLRSDDTAVYYCARESGDDAFDIWGQGTMVTVSS VL: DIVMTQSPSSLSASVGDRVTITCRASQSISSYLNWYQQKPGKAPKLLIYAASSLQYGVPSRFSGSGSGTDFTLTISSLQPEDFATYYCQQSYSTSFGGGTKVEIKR
3. Ab9 (antibody, human IgG1, kappa, V domains shown, full-length human IgG) VH: EVQLVQSGAEVKKPGASVKVSCKASGYTFTGYDMHWVRQAPGQGLEWMGWINPNSGATNFPQKFQGRVTMTRDTSITTAYMDLSRLRSDDTAVYYCARESGDDAFDIWGQGTMVTVSS VL: DIVMTQSPSSLSASVGDRVTITCRASQRISSYLNWYQQKPGKAPKLLIYAASSLQSGVPSRFSGSGSGTDFTLTISSLQPEDFATYYCQQSYSTSFGGGTKVEIKR
4. CTIR2-9 (antibody, human IgG1, kappa, V domains shown, CDR-shuffled IgG) VH: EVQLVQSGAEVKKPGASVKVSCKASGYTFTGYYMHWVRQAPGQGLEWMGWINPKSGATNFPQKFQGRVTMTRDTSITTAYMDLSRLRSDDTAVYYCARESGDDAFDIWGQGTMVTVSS VL: DIVMTQSPSSLSASVGDRVTITCRASQKISSYLNWYQQKPGKAPKLLIYAASSLQYGVPSRFSGSGSGTDFTLTISSLQPEDFATYYCQQSVGLFFGGGTKVEIKR
5. Ab1 (antibody, human IgG1, kappa, V domains shown, full-length human IgG) VH: EVQLVQSGAEVKKPGASVKVSCKASGYTFTGYDMHWVRQAPGQGLEWMGWINPNSGATNFPQKFQGRVTMTRDTSITTAYMDLSRLRSDDTAVYYCARESGDDAFDIWGQGTMVTVSS VL: DIVMTQSPSSLSASVGDRVTITCRASQKISSYLNWYQQKPGKAPKLLIYAASSLQSGVPSRFSGSGSGTDFTLTISSLQPEDFATYYCQQSYSTSFGGGTKVEIKR

Response:
5180
5730
13600
3540
14000
